- target under test: T1, Anti-PSMA Fab (SEQ ID NOs: 19, 20)
- T1 construct: also called 006 PSMA Fab
- protocol: phage binding ELISA; biotinylated PSMA Fab on neutravidin plate pre-incubated with PSMA antigen (competitor), anti-M13 HRP detection;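 further: competition ELISA where clonal phage supernatants were added to wells preincubated with PSMA antigen or with blocking buffer only as control, bound phage read via HRP-coupled anti-M13 antibody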
readout: Anti-PSMA Fab signal in the presence of PSMA

>>> print(df.to_string())
                                     binder  measured
0  AVKACIPEWMCIGF (peptide, not shown: large carriers, Clonal phage supernatant) [Phage-1793]     0.106
1  LHVYCVPEWMCAGF (peptide, not shown: large carriers, Clonal phage supernatant; also called Peptide-272) [Phage-1802]     0.109
2  EPKWCVPRGLCNYD (peptide, not shown: large carriers, Clonal phage supernatant; also called Peptide-240) [Phage-1790]    0.0587
3  VEKVCKPVWMCVGF (peptide, not shown: large carriers, Clonal phage supernatant) [Phage-1798]     0.156
4  ESRLCVPAWMCAGF (peptide, not shown: large carriers, Clonal phage supernatant; also called Peptide-270) [Phage-1800]     0.103
5  FTNYCVPSWMCTGF (peptide, not shown: large carriers, Clonal phage supernatant) [Phage-1797]     0.129
6  IVPLCKPAWMCKLF (peptide, not shown: large carriers, Clonal phage supernatant) [Phage-1792]     0.221
7  EEPLCRPVWMCEGF (peptide, not shown: large carriers, Clonal phage supernatant) [Phage-1799]     0.117
